Tested on: Phakopsora pachyrhizi (F129L)
TEST: Protective control of soybean rust on soybeans (PHAKPA P2)
Type: in vivo
STATED_CONDITIONS: protective P2, 16 ppm, soybean rust F129L
The entries below come with measured % PHAKPA (F129L) Disease level P2 at 16 ppm values attached.
METRIC: % PHAKPA (F129L) Disease level P2 at 16 ppm (%)

STRUCTURE_NOTATION	ASSAY_RESULT
CNC(=O)/C(=N/OC)c1cccc(C)c1CO/N=C(\C)c1c(Cl)cccc1C(F)(F)F	14
CO/N=C(/C(=O)OC)c1cccc(C)c1CO/N=C(\C)c1cc(F)cc(C(F)(F)F)c1	2
CNC(=O)/C(=N/OC)c1cccc(C)c1CO/N=C(\C)c1ccccc1F	0
CO/N=C(/C(=O)OC)c1cccc(C)c1CO/N=C(\C)c1cccc(C(C)(F)F)c1	4

* * *

Test system: Phakopsora pachyrhizi (F129L)
TEST: Protective control of soybean rust on soybeans (PHAKPA P6)
Format: in vivo
STATED_CONDITIONS: protective P6, 4 ppm, soybean rust F129L
METRIC: % PHAKPA (F129L) Disease level P6 at 4 ppm (%)

STRUCTURE_NOTATION	EXPERIMENTAL_SYSTEM	ASSAY_RESULT
CNC(=O)/C(=N/OC)c1cccc(C(F)F)c1CO/N=C(\C)c1cccc(C(F)(F)F)c1	Phakopsora pachyrhizi (F129L)	20
CO/N=C(\C)c1ccc(/C(C)=N/OCc2c(C)cccc2/C(=N\OC)C(=O)OC)cc1	Phakopsora pachyrhizi (F129L)	33
CO/N=C(/C(=O)OC)c1cccc(C)c1CO/N=C(\C)c1ccc(Cl)c(Cl)c1C(F)(F)F	Phakopsora pachyrhizi (F129L)	67
C=Cc1ccccc1/C(C)=N/OCc1c(C)cccc1/C(=N\OC)C(=O)NC	Phakopsora pachyrhizi (F129L)	100

* * *

Test system: Phakopsora pachyrhizi (F129L)
TEST: Protective control of soybean rust on soybeans (PHAKPA P2)
Type: in vivo
STATED_CONDITIONS: protective P2, 16 ppm, soybean rust F129L
The entries below come with measured % PHAKPA (F129L) Disease level P2 at 16 ppm values attached.
METRIC: % PHAKPA (F129L) Disease level P2 at 16 ppm (%)

STRUCTURE_NOTATION	EXPERIMENTAL_SYSTEM	MEASUREMENT_UNIT	ASSAY_RESULT
CNC(=O)/C(=N/OC)c1cccc(C)c1CO/N=C(\COC)c1cccc(C(F)(F)F)c1	Phakopsora pachyrhizi (F129L)	%	0
CNC(=O)/C(=N/OC)c1cccc(C)c1CO/N=C(\C)c1c(F)ccc(C(F)(F)F)c1NC	Phakopsora pachyrhizi (F129L)	%	57
CNC(=O)/C(=N/OC)c1cccc(C)c1CO/N=C(\C)c1c(F)ccc(F)c1OC(F)(F)F	Phakopsora pachyrhizi (F129L)	%	0
CNC(=O)/C(=N/OC)c1cccc(C)c1CO/N=C(\C)c1ccc(C(C)=O)cc1	Phakopsora pachyrhizi (F129L)	%	47
C=Cc1ccccc1/C(C)=N/OCc1c(C)cccc1/C(=N\OC)C(=O)NC	Phakopsora pachyrhizi (F129L)	%	43
CNC(=O)/C(=N/OC)c1cccc(C)c1CO/N=C(\COC)c1ccccc1	Phakopsora pachyrhizi (F129L)	%	0
CO/N=C(/C(=O)OC)c1cccc(C)c1CO/N=C(\C)c1ccccc1CC(F)(F)F	Phakopsora pachyrhizi (F129L)	%	57
COC/C(=N\OCc1c(C)cccc1/C(=N\OC)C(=O)OC)c1cccc(C(F)(F)F)c1	Phakopsora pachyrhizi (F129L)	%	2

* * *

The entries below come with measured % PHAKPA (F129L) Disease level P2 at 16 ppm values attached.
System: Phakopsora pachyrhizi (F129L)
TEST: Protective control of soybean rust on soybeans (PHAKPA P2)
Type: in vivo
STATED_CONDITIONS: protective P2, 16 ppm, soybean rust F129L
METRIC: % PHAKPA (F129L) Disease level P2 at 16 ppm (%)

STRUCTURE_NOTATION	EXPERIMENTAL_SYSTEM	ASSAY_RESULT
CO/N=C(/C(=O)OC)c1cccc(C)c1CO/N=C(\C)c1c(F)cc(Br)cc1C(F)(F)F	Phakopsora pachyrhizi (F129L)	47
CNC(=O)/C(=N/OC)c1cccc(C)c1CO/N=C(\C)c1ccc(Cc2ccccc2)cc1C(F)(F)F	Phakopsora pachyrhizi (F129L)	6
CO/N=C(/C(=O)OC)c1cccc(C)c1CO/N=C(/c1ccc(Cl)cc1)C(F)F	Phakopsora pachyrhizi (F129L)	29
CO/N=C(/C(=O)OC)c1cccc(C)c1CO/N=C(\C)c1c(F)cc(F)cc1OC(F)(F)F	Phakopsora pachyrhizi (F129L)	18

* * *

Tested on: Phakopsora pachyrhizi (F129L)
TEST: Protective control of soybean rust on soybeans (PHAKPA P2)
Format: in vivo
STATED_CONDITIONS: P2 protective, 4 ppm, % diseased leaf area
Please use met whenever PHAKPA (F129L) Disease level (%) P2 at 4 ppm is not below 20%, and not met whenever it is.

MOLECULE	LABEL_CLASS
CC/C(=N\OCc1ccccc1/C(=N\OC)C(=O)NC)c1cccc(C(F)(F)F)c1 [reference compound]	met
CO/C=C(/C(=O)OC)c1ccccc1CO/N=C(\C)c1cccc(C(F)(F)F)c1 [reference compound]	not met
CCc1ccc(/C(C)=N/OCc2c(C)cccc2/C(=N\OC)C(=O)NC)cc1	not met
CNC(=O)/C(=N/OC)c1ccccc1CO/N=C(\C)c1cc(Cl)ccc1Cl [reference compound]	met
CNC(=O)/C(=N/OC)c1cccc(C)c1CO/N=C(\C)c1cc(Cl)cc(Cl)c1	not met
CNC(=O)/C(=N/OC)c1ccccc1CO/N=C(\C)c1ccc(C)cc1 [reference compound]	met
CO/N=C(/C(=O)OC)c1cccc(C)c1CO/N=C(\SC)c1cccc(C)c1 [drawing 972, reference compound]	met

* * *

The entries below come with measured % PHAKPA (F129L) Disease level P2 at 16 ppm values attached.
System: Phakopsora pachyrhizi (F129L)
TEST: Protective control of soybean rust on soybeans (PHAKPA P2)
Type: in vivo
STATED_CONDITIONS: protective P2, 16 ppm, soybean rust F129L
METRIC: % PHAKPA (F129L) Disease level P2 at 16 ppm

STRUCTURE_NOTATION	ASSAY_RESULT
CNC(=O)/C(=N/OC)c1cccc(C)c1CO/N=C(\C)c1cccc(Cl)c1	0%
CNC(=O)/C(=N/OC)c1cccc(C)c1CO/N=C(\C)c1ccccc1Cl	2%
CO/N=C(/C(=O)OC)c1cccc(C)c1CO/N=C(\C)c1c(F)cccc1F	3%
CNC(=O)/C(=N/OC)c1cccc(C)c1CO/N=C(\C)c1ccc(OC)cc1C(F)(F)F	1%
CO/N=C(/C(=O)OC)c1cccc(C)c1CO/N=C(\C)c1ccc(CC2COC2)cc1	57%
CNC(=O)/C(=N/OC)c1cccc(C)c1CO/N=C(\C)c1cccc(C#N)c1	3%
CNC(=O)/C(=N/OC)c1cccc(C)c1CO/N=C(\C)c1cc(F)cc(C(F)(F)F)c1	1%
CO/C=C(/C(=O)OC)c1cccc(C)c1CO/N=C(\C)c1c(F)cccc1C(F)(F)F	0%

* * *

System: Phakopsora pachyrhizi (F129L)
TEST: Protective control of soybean rust on soybeans (PHAKPA P6)
Assay type: in vivo
STATED_CONDITIONS: protective P6, 4 ppm, soybean rust F129L
Decision: % PHAKPA (F129L) Disease level P6 at 4 ppm beneath 30% gives TRUE; % PHAKPA (F129L) Disease level P6 at 4 ppm meeting or exceeding 30% gives FALSE.

COMPOUND	LABEL_CLASS
CO/N=C(/C(=O)OC)c1cccc(C)c1CO/N=C(\C)c1ccc(OC(F)(F)F)cc1F	TRUE
CNC(=O)/C(=N/OC)c1cccc(C)c1CO/N=C(\C)c1ccc(F)c(F)c1OC(F)(F)F	TRUE
CNC(=O)/C(=N/OC)c1cccc(C)c1CO/N=C(/c1ccc(Cl)cc1)C(F)F	FALSE
CNC(=O)/C(=N/OC)c1cccc(C)c1CO/N=C(\C)c1cc(C(F)(F)F)cc(F)c1NC	FALSE
CO/N=C(/C(=O)OC)c1cccc(C)c1CO/N=C(\C)c1ccc(Oc2ccc(Cl)cc2)cc1C(F)(F)F	FALSE
CNC(=O)/C(=N/OC)c1cccc(C)c1CO/N=C(\C)c1ccccc1C1(C)CC1	FALSE
CO/N=C(/C(=O)OC)c1cccc(C)c1CO/N=C(\C)c1ccc(Cc2ccccc2)cc1OC(F)(F)F	FALSE
C#Cc1cc(/C(C)=N/OCc2c(C)cccc2/C(=N\OC)C(=O)NC)cc(C(F)(F)F)c1	TRUE
CNC(=O)/C(=N/OC)c1cccc(C)c1CO/N=C(\C)c1cccc(Br)c1F	TRUE
CNC(=O)/C(=N/OC)c1cccc(C)c1CO/N=C(\C)c1cc(Br)ccc1F	TRUE
CO/N=C(/C(=O)OC)c1cccc(C)c1CO/N=C(\C)c1cc(Cl)cc(Cl)c1	FALSE
CO/N=C(/C(=O)OC)c1cccc(C)c1CO/N=C(\C)c1cccc(C2CC2(Cl)Cl)c1 (centres unmarked)	TRUE
C=Cc1cccc(/C(=N\OC)C(=O)NC)c1CO/N=C(\C)c1ccccc1	TRUE
CCc1ccccc1/C(C)=N/OCc1c(C)cccc1/C(=N\OC)C(=O)OC	FALSE
CO/N=C(/C(=O)OC)c1cccc(C)c1CO/N=C(\C)c1cc(F)cc(C(F)(F)F)c1	TRUE
CNC(=O)/C(=N/OC)c1cccc(C)c1CO/N=C(\C)c1ccc(C)cc1	TRUE
CNC(=O)/C(=N/OC)c1cccc(C)c1CO/N=C(\C)c1cccc(F)c1OC(F)(F)F	TRUE
CO/N=C(/C(=O)OC)c1cccc(C)c1CO/N=C(\C)c1ccccc1C(F)(F)F	FALSE
CO/N=C(/C(=O)OC)c1cccc(C)c1CO/N=C(\C)c1cc(C2CC2)cc(C(F)(F)F)c1	FALSE
CO/N=C(/C(=O)OC)c1cccc(C)c1CO/N=C(\C)c1cccc(C(C)C)c1	FALSE
CNC(=O)/C(=N/OC)c1cccc(C)c1CO/N=C(\C)c1ccc(-c2ccc(F)cc2)cc1C(F)(F)F	TRUE
CNC(=O)/C(=N/OC)c1cccc(C)c1CO/N=C(\C)c1ccc(C)cc1OC(F)(F)F	FALSE
CNC(=O)/C(=N/OC)c1cccc(C)c1CO/N=C(\C)c1ccccc1C1CC1(F)F (centres unmarked)	FALSE
CO/N=C(/C(=O)OC)c1cccc(C)c1CO/N=C(\C)c1ccc(Cl)c(C(F)(F)F)c1	FALSE
CO/C=C(/C(=O)OC)c1cccc(C)c1CO/N=C(\C)c1c(Cl)cc(Cl)cc1OC(F)(F)F	FALSE
CO/C=C(/C(=O)OC)c1cccc(C)c1CO/N=C(\C)c1ccc(-c2ccccc2)cc1OC(F)(F)F	FALSE
CNC(=O)/C(=N/OC)c1cccc(C)c1CO/N=C(\C)c1cc(C)cc(Cl)c1	FALSE
CNC(=O)/C(=N/OC)c1cccc(C)c1CO/N=C(\C)c1cccc(Cl)c1C(F)(F)F	FALSE
CCC/C(=N\OCc1c(C)cccc1/C(=N\OC)C(=O)OC)c1ccccc1	FALSE
CNC(=O)/C(=N/OC)c1cccc(C)c1CO/N=C(\C)c1ccc(Cl)c(C)c1	TRUE
CO/N=C(/C(=O)OC)c1cccc(C)c1CO/N=C(\C)c1ccc(F)c(F)c1OC(F)(F)F	FALSE
CO/N=C(/C(=O)OC)c1cccc(C2CC2)c1CO/N=C(\C)c1cccc(C(F)(F)F)c1	FALSE
